target: cIAP1-BIR3 (Homo sapiens, UniProt Q13490); assay: Biacore SPR solution competition binding assay vs smac7 mer peptide, cIAP1-BIR3; conditions: citrate salt form tested; 6 nM cIAP1-BIR3; 25° C.; read-out: CIAP-BIR3 Binding Biacore (Competitive) EC50
Sequence (Q13490 260-352 limits assumed): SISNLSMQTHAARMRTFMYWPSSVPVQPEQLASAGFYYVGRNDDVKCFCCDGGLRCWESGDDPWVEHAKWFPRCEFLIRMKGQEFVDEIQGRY
pEC50: −log10 of the molar value.
Exercise: for every item that follows, state its recorded pEC50.

Consider the reported pEC50 for these compounds:
| smilesString | pEC50 |
| --- | --- |
| CN[C@@H](C)C(=O)N[C@@H](Cc1ccc(NC(=O)CCCCC(=O)Nc2ccc(C[C@H](NC(=O)[C@H](C)NC)C(=O)N3CCC[C@H]3c3cncc(C(=O)c4ccc(F)cc4)c3)cc2)cc1)C(=O)N1CCC[C@H]1c1cncc(C(=O)c2ccc(F)cc2)c1 | 9.22 to 9.24 |
| CN[C@@H](C)C(=O)N[C@@H](CCCCNC(=O)c1cccc(C(=O)NCCCC[C@H](NC(=O)[C@H](C)NC)C(=O)N2CCC[C@H]2c2cncc(C(=O)c3ccc(F)cc3)c2)c1)C(=O)N1CCC[C@H]1c1cncc(C(=O)c2ccc(F)cc2)c1 | 9.28 to 9.33 |
| CN[C@@H](C)C(=O)N[C@@H](CCCCNC(=O)CCCCCCCC(=O)NCCCC[C@H](NC(=O)[C@H](C)NC)C(=O)N1CCC[C@H]1c1cncc(C(=O)c2ccc(F)cc2)c1)C(=O)N1CCC[C@H]1c1cncc(C(=O)c2ccc(F)cc2)c1 | 9.16 to 9.17 |
| CN[C@@H](C)C(=O)N[C@@H](Cc1ccc(NC(=O)CCCCCCCCC(=O)Nc2ccc(C[C@H](NC(=O)[C@H](C)NC)C(=O)N3CCC[C@H]3c3cncc(C(=O)c4ccc(F)cc4)c3)cc2)cc1)C(=O)N1CCC[C@H]1c1cncc(C(=O)c2ccc(F)cc2)c1 | 9.39 to 9.43 |
| CN[C@@H](C)C(=O)N[C@@H](Cc1ccc(NC(=O)CCCC(=O)Nc2ccc(C[C@H](NC(=O)[C@H](C)NC)C(=O)N3CCC[C@H]3c3cncc(C(=O)c4ccc(F)cc4)c3)cc2)cc1)C(=O)N1CCC[C@H]1c1cncc(C(=O)c2ccc(F)cc2)c1 | 9.15 |

I need pEC50 for every entry listed below, if you could help.
1. CN[C@@H](C)C(=O)N[C@@H](CCCCNC(=O)c1ccc(C(=O)NCCCC[C@H](NC(=O)[C@H](C)NC)C(=O)N2CCC[C@H]2c2cncc(C(=O)c3ccc(F)cc3)c2)cc1)C(=O)N1CCC[C@H]1c1cncc(C(=O)c2ccc(F)cc2)c1
2. CN[C@@H](C)C(=O)N[C@@H](CCCCNC(=O)CCCCCC(=O)NCCCC[C@H](NC(=O)[C@H](C)NC)C(=O)N1CCC[C@H]1c1cncc(C(=O)c2ccc(F)cc2)c1)C(=O)N1CCC[C@H]1c1cncc(C(=O)c2ccc(F)cc2)c1
3. CN[C@@H](C)C(=O)N[C@@H](CCCCNS(=O)(=O)c1ccc2ccc(S(=O)(=O)NCCCC[C@H](NC(=O)[C@H](C)NC)C(=O)N3CCC[C@H]3c3cncc(C(=O)c4ccc(F)cc4)c3)cc2c1)C(=O)N1CCC[C@H]1c1cncc(C(=O)c2ccc(F)cc2)c1

1. 8.31 to 8.32
2. 9.15 to 9.17
3. 9.06

====

tested on: SKOV3 tumor cells; experiment: Cellular assay, SKOV3 tumor cell proliferation (Cell Titer Glo); assay type: cell-based; conditions: Homo sapiens, SK-OV-3, citrate salt form tested, 72 hour growth
resultType: IC50

Consider the reported IC50 for these compounds:
| smilesString | studyTarget | IC50 |
| --- | --- | --- |
| CN[C@@H](C)C(=O)N[C@@H](Cc1ccc(NC(=O)CCCCCCCCC(=O)Nc2ccc(C[C@H](NC(=O)[C@H](C)NC)C(=O)N3CCC[C@H]3c3cncc(C(=O)c4ccc(F)cc4)c3)cc2)cc1)C(=O)N1CCC[C@H]1c1cncc(C(=O)c2ccc(F)cc2)c1 | SKOV3 tumor cells | 7.39 to 15.4 nM |
| CN[C@@H](C)C(=O)N[C@@H](CCCCNS(=O)(=O)c1ccc(-c2ccc(S(=O)(=O)NCCCC[C@H](NC(=O)[C@H](C)NC)C(=O)N3CCC[C@H]3c3cncc(C(=O)c4ccc(F)cc4)c3)cc2)cc1)C(=O)N1CCC[C@H]1c1cncc(C(=O)c2ccc(F)cc2)c1 | SKOV3 tumor cells | 37.4 to 84.2 nM |

I need IC50 for every entry listed below, if you could help.
1. O=C(NCCCC[C@H](NC(=O)[C@@H]1CCN1)C(=O)N1CCC[C@H]1c1cncc(C(=O)c2ccc(F)cc2)c1)c1ccc(-c2ccc(C(=O)NCCCC[C@H](NC(=O)[C@@H]3CCN3)C(=O)N3CCC[C@H]3c3cncc(C(=O)c4ccc(F)cc4)c3)cc2)cc1
2. CN[C@@H](C)C(=O)N[C@@H](CCCCNC(=O)CCCCCCCC(=O)NCCCC[C@H](NC(=O)[C@H](C)NC)C(=O)N1CCC[C@H]1c1cncc(C(=O)c2ccc(F)cc2)c1)C(=O)N1CCC[C@H]1c1cncc(C(=O)c2ccc(F)cc2)c1

1. 9420 to 9460 nM
2. 16.1 to 20.1 nM

====

Exercise: for every item that follows, state its recorded pIC50.
tested on: SKOV3 tumor cells; test: Cellular assay, SKOV3 tumor cell proliferation (Cell Titer Glo); assay type: cell-based; conditions: Homo sapiens, SK-OV-3, citrate salt form tested, 72 hour growth
pIC50: −log10 of the molar value.

Consider the reported pIC50 for these compounds:
| compound | pIC50 |
| --- | --- |
| CN[C@@H](C)C(=O)N[C@@H](CCCCNS(=O)(=O)c1ccc2ccc(S(=O)(=O)NCCCC[C@H](NC(=O)[C@H](C)NC)C(=O)N3CCC[C@H]3c3cncc(C(=O)c4ccc(F)cc4)c3)cc2c1)C(=O)N1CCC[C@H]1c1cncc(C(=O)c2ccc(F)cc2)c1 | 7.06 to 7.09 |
| CN[C@@H](C)C(=O)N[C@@H](CCCCNC(=O)c1ccc(C(=O)NCCCC[C@H](NC(=O)[C@H](C)NC)C(=O)N2CCC[C@H]2c2cncc(C(=O)c3ccc(F)cc3)c2)cc1)C(=O)N1CCC[C@H]1c1cncc(C(=O)c2ccc(F)cc2)c1 | 6.90 to 7.08 |

I need pIC50 for every entry listed below, if you could help.
1. CN[C@@H](C)C(=O)N[C@@H](Cc1ccc(NC(=O)CCCC(=O)Nc2ccc(C[C@H](NC(=O)[C@H](C)NC)C(=O)N3CCC[C@H]3c3cncc(C(=O)c4ccc(F)cc4)c3)cc2)cc1)C(=O)N1CCC[C@H]1c1cncc(C(=O)c2ccc(F)cc2)c1
2. CN[C@@H](C)C(=O)N[C@@H](Cc1ccc(NC(=O)CCCCCCCC(=O)Nc2ccc(C[C@H](NC(=O)[C@H](C)NC)C(=O)N3CCC[C@H]3c3cncc(C(=O)c4ccc(F)cc4)c3)cc2)cc1)C(=O)N1CCC[C@H]1c1cncc(C(=O)c2ccc(F)cc2)c1

["≤ 6.01", "7.63 to 7.77"]

I need pIC50 for every entry listed below, if you could help.
1. CN[C@@H](C)C(=O)N[C@@H](CCCCNC(=O)CCCCCCCCC(=O)NCCCC[C@H](NC(=O)[C@H](C)NC)C(=O)N1CCC[C@H]1c1cncc(C(=O)c2ccc(F)cc2)c1)C(=O)N1CCC[C@H]1c1cncc(C(=O)c2ccc(F)cc2)c1
2. CN[C@@H](C)C(=O)N[C@@H](Cc1ccc(NC(=O)CCCCC(=O)Nc2ccc(C[C@H](NC(=O)[C@H](C)NC)C(=O)N3CCC[C@H]3c3cncc(C(=O)c4ccc(F)cc4)c3)cc2)cc1)C(=O)N1CCC[C@H]1c1cncc(C(=O)c2ccc(F)cc2)c1
3. CN[C@@H](C)C(=O)N[C@@H](Cc1ccc(NC(=O)c2cccc(C(=O)Nc3ccc(C[C@H](NC(=O)[C@H](C)NC)C(=O)N4CCC[C@H]4c4cncc(C(=O)c5ccc(F)cc5)c4)cc3)c2)cc1)C(=O)N1CCCC1c1cncc(C(=O)c2ccc(F)cc2)c1 (stereo partly drawn)
4. CN[C@@H](C)C(=O)N[C@@H](CCCCNC(=O)c1ccc(-c2ccc(C(=O)NCCCC[C@H](NC(=O)[C@H](C)NC)C(=O)N3CCC[C@H]3c3cncc(C(=O)c4ccc(F)cc4)c3)cc2)cc1)C(=O)N1CCC[C@H]1c1cncc(C(=O)c2ccc(F)cc2)c1
5. CN[C@@H](C)C(=O)N[C@@H](Cc1ccc(NC(=O)CCCCCC(=O)Nc2ccc(C[C@H](NC(=O)[C@H](C)NC)C(=O)N3CCC[C@H]3c3cncc(C(=O)c4ccc(F)cc4)c3)cc2)cc1)C(=O)N1CCC[C@H]1c1cncc(C(=O)c2ccc(F)cc2)c1

["7.79 to 8.02", "6.50 to 7.22", "6.54 to 6.97", "8.23 to 10.59", "7.59 to 7.63"]
